# System: tobacco budworm (Heliothis virescens [Fabricius])
# protocol_notes: surface-treated diet test against the tobacco budworm
# Assay type: in vivo
# measurement_parameters: tobacco budworm second instar larvae; surface-treated diet; 0.25 millimoles of candidate insecticide on the surface of the diet; five-day exposure; compared to total number of insects infested
# Procedure: Candidate insecticides were evaluated for activity against the tobacco budworm (Heliothis virescens [Fabricius]) in a surface-treated diet test. […] After the five-day exposure period insecticidal activity for each rate of application of candidate insecticide was assessed as percent inhibition of insect weight relative to the weight of insects from untreated controls, and percent mortality when compared to the total number of insects infested. […]

| compound | Percent Mortality / % |
| --- | --- |
| Cn1nnc(-c2ccc(CN3CCC(C(NC(=O)c4cccc(Cl)c4)c4ccc(OC(F)(F)F)cc4)CC3)cc2)n1 (stereo not shown) | 67 |
| CCn1nnc(-c2ccc(CN3CCC(C(OC(=O)Nc4cc(F)cc(F)c4)c4ccc(Oc5ccccc5)cc4)CC3)cc2)n1 (stereo not shown) | 17 |
| CCn1nnc(-c2ccc(CN3CCC(C(OC(=O)Nc4ccc(Oc5ccccc5)cc4)c4ccc(Oc5ccccc5)cc4)CC3)cc2)n1 (stereo not shown) | 0 |
| CCON=Cc1ccc(CN2CCC(C(OC(=O)Nc3ccc(F)cc3F)c3ccc(C(F)(F)F)cc3)CC2)cc1 (stereo not shown) | 100 |
